molecular target: angiotensin II receptor subtype 1 (AT1) (Oryctolagus cuniculus, UniProt P34976); construct: from adrenal glands in rabbits; from tissue; host or cells: adrenal glands of rabbits; experiment: Binding assay, angiotensin II receptor subtype 1 (AT1); parameters: species or system rabbits; dose or concentration left out as unconfirmed; conditions: 3 h
Sequence (P34976 whole entry): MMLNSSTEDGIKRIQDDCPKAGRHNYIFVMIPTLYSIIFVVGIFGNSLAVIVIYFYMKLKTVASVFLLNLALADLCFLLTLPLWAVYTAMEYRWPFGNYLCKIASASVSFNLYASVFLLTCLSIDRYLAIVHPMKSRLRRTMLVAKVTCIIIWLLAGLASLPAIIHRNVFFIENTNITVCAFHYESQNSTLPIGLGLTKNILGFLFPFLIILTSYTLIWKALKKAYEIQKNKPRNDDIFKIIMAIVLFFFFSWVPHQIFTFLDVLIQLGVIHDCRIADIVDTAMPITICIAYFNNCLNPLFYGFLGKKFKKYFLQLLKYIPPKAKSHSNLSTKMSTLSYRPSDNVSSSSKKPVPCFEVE
Each entry below carries its recorded inhibition.
A number alone suffices; assume %.

molecule: CCCCOc1nc2ccc(C(=O)N3CCOCC3)cc2n1Cc1ccc(C(=O)O)cc1 [Compound No. 4]
result-unit: %
inhibition: 45
//
molecule: CCOc1nc2ccc(C(=O)N3CCOCC3)cc2n1Cc1ccc(O)cc1 [compound 2]
result-unit: %
inhibition: 0
//
molecule: CCOc1nc2ccc(C(=O)N3CCCC3)cc2n1Cc1ccc(C(=O)O)cc1 [Compound No. 6]
result-unit: %
inhibition: 50
//
molecule: CCOc1nc2ccc(C(=O)N3CCOCC3)cc2n1Cc1ccc(C(=O)O)cc1 [Compound No. 1]
result-unit: %
inhibition: 45
//
molecule: CCOc1nc2ccc(C(=O)N3CCCCC3)cc2n1Cc1ccc(C(=O)O)cc1 [Compound No. 5]
result-unit: %
inhibition: 50

Below: the item to evaluate.
// CCCOc1nc2ccc(C(=O)N3CCOCC3)cc2n1Cc1ccc(C(=O)O)cc1 [Compound No. 3] : inhibition value = 45
